measurement target: T1, cynomolgus CGRP receptor (cynoCRLR + cynoRAMP1) (cynomolgus monkey)
T1 chain 1: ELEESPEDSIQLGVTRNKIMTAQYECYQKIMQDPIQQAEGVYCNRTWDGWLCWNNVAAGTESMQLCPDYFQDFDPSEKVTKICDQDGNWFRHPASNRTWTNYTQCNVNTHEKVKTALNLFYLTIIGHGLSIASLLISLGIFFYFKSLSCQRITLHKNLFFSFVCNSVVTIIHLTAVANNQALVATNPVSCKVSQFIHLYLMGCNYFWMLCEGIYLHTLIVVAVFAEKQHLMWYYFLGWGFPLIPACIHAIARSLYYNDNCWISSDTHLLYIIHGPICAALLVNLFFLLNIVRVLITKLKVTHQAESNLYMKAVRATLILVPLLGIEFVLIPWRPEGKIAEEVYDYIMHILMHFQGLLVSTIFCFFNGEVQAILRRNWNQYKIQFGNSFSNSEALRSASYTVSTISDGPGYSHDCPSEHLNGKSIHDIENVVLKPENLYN
T1 chain 2: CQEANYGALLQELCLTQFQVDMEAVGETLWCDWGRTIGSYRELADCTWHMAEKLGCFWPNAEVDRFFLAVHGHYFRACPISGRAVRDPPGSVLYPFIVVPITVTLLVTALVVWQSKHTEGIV
procedure details: cell-based or functional assay
measured quantity: cAMP assay IC50 (nM)
Record the value in nM, omitting the unit from your answer.

# count of solved cases: 2
# binder, unit of measure, cAMP assay IC50
measured = [
    ("32H7 (antibody, human IgG2, kappa, V domains shown, also called 32H7.1G) VH: QVQLVESGGGVVQPGRSLRLSCAASGFTFSSYGMHWVRQAPGKGLEWVAVIWYDGSNKYYADSVKGRFIISRDKSKNTLYLQMNSLRAEDTAVYYCARAGGIAAAGLYYYYGMDVWGQGTTVTVSS VL: EIVLTQSPGTLSLSPGERATLSCRASQSVSSGYLTWYQQKPGQAPRLLIYGASSRATGIPDRFSGSGSGTDFTLTISRLEPEDFAVYYCQQYGNSLCRFGQGTKLEIKR", "nM", 1.93),
    ("12E8 (antibody, human IgG2, kappa, V domains shown, also called 12E8.2) VH: QVQLVESGGGVVQPGRSLRLSCAASGFTFSSYGMHWVRQAPGKGLEWVAVISYDGSHESYADSVKGRFTISRDISKNTLYLQMNSLRAEDTAVYFCARERKRVTMSTLYYYFYYGMDVWGQGTTVTVSS VL: DITLTQTPLSLSVSPGQPASISCKSSQSLLHSDGRNYLYWYLQKPGQPPQLLIYEVSNRFSGLPDRFSGSGSGTDFTLKISRVEAEDVGIYYCMQSFPLPLTFGGGTKVEIKR", "nM", 4.13),
]

// switching to the query binder
Record request: cAMP assay IC50 value, item 2E7 (antibody, human IgG2, kappa, V domains shown, also called 02E7; 02E7.2) VH: EVQLLESGGGLVQPGESLRLSCAASGFTFSSYAMSWVRQAPGKGLEWVSAISGSGGRTYYADSVKGRFTISRDNSKNTLYLQMNSLRAEDTAVYYCAKDQREVGPYSSGWYDYYYGMDVWGQGTTVTVSS VL: DIQMTQSPSSLSASVGDRVTITCRASQGIRNDLGWFQQKPGKAPKRLIYAASSLQSGVPSRFSGSGSGTEFTLTISSLQPEDLATYYCLQYNIYPWTFGQGTKVEIKR
5.51
